Reported IC50 values for a set of compounds
- System Under Test: human recombinant AT2 receptor (Homo sapiens)
- Construct: purchased Eurofins ITEM26 (protocol number)
- Sequence (P50052 1-363): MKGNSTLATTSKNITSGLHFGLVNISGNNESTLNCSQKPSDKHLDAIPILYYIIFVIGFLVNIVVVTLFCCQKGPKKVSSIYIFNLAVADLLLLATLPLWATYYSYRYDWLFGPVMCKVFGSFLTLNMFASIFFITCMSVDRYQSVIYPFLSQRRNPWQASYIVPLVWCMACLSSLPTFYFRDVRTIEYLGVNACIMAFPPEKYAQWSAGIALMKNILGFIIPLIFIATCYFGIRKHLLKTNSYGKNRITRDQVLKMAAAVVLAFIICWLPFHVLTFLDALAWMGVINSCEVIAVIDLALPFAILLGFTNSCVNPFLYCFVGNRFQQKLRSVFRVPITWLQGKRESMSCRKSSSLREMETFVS
- Experimental Protocol: Binding to AT2 receptor, radiometric scintillation assay (Eurofins ITEM26)
- Measurement Parameters: AT2 GraFit IC50, value in parentheses after <0.3, value printed in parentheses behind the bound <0.3
Measurement Kind: IC50 (nM)

[[record]]
compound = "Cc1nccn1Cc1ccc(-c2cc(CC(C)C)ccc2S(=O)(=O)Nc2ncccn2)cc1F [Example 53]"
result = 0.25

[[record]]
compound = "CC(C)Cc1cc(-c2ccc(Cn3ccnc3C3CC3)c(F)c2)c(S(=O)(=O)Nc2ncccn2)s1 [Example 47]"
result = 0.25

